Answer each item with its documented GI50.
system: HOP-62; experiment: NCI tumour cell line growth inhibition, 48 h
Activity calls are given as the source filed them. No stated cut-off is given here; in the data, active = GI50 up to about 1.1 µM and inactive = higher.

{"compound": "CC[C@H](C)C1=C(OC(C)=O)[N@+]2([O-])Oc3ccc(-c4c(O)c(O)c(-c5ccc(OC(C)=O)cc5)c(OC(C)=O)c4OC(C)=O)cc3O[C@]2([C@@H](C)CC)C(=O)N1O", "recorded.value": "24.6 µM (inactive)"}

Below are 7 compounds. Give each one its GI50.
1. CCCNC1=NC(C)=CSC(Nc2ccccc2)=C1C#N
2. N#CC12CC3(CCC1CCC1(C2)OCCO1)OCCO3 (stereo not given)
3. Cc1cc(Cl)cc2c1NC(=O)C2=O.O=C(c1ccccc1)C(F)(F)F
4. C=C(C)C1CC=C(C)CC1 (stereo not given)
5. Cc1cccc2cc3c(ccc4ccccc43)c[n+]12
6. Cc1ccsc1/C(S)=N\c1ccc(Cl)c(/C=N/OC(C)(C)C)c1
7. O=C1[C@H]2C(c3ccccc3)=NN(C(=O)c3ccccc3)[C@H]2C(=O)N1c1ccccc1

Out:
["> 100 µM (inactive)", "> 100 µM (inactive)", "> 100 µM (inactive)", "883 µM (inactive)", "7.89 µM (inactive)", "51.5 µM (inactive)", "> 100 µM (inactive)"]

Below is a list of compounds. For each, state its recorded GI50.
1. CCOC(=O)c1sc2nc(SC)nc(Nc3ccc4c(c3)OCO4)c2c1N
2. COc1ccc(/C=N/c2nc3cc4sc(/N=C/c5ccc(OC)cc5)nc4cc3s2)cc1

Out:
1: 28.8 µM (inactive); 2: > 49.2 µM (inactive)

---

Assign GI50 to each entry below.
test system: MCF7; assay: NCI tumour cell line growth inhibition, 48 h
Calls of active or inactive are those of the source. Rule as the data show it: active = GI50 up to about 1.1 µM and inactive = higher.

{"compound": "CNC(=O)SCC(NC(=O)CCC(N)C(=O)O)C(=O)NCC(=O)O (centres undefined)", "observation.type": "GI50", "recorded.value": "> 100 µM (inactive)"}
{"compound": "NC(=O)Nc1ccc(C(=O)NCCCNC(=O)c2ccc(NC(N)=O)cc2)cc1", "observation.type": "GI50", "recorded.value": "> 100 µM (inactive)"}
{"compound": "CC(C)=Cc1cc2c(cc1O)CCC1C2CC[C@@]2(C)C1CC[C@@H]2O (some centres undefined)", "observation.type": "GI50", "recorded.value": "14.4 µM (inactive)"}

The record that follows has no GI50 shown yet.
In: Look up GI50 for this compound: N#CS/C(Cl)=C(/C(Cl)=C(Cl)Cl)[N+](=O)[O-]
Out: 29.9 µM (inactive)

---

Kindly supply the reported GI50 values for the records listed here.
tested on: SF-295; assay: NCI tumour cell line growth inhibition, 48 h
Activity calls are given as the source filed them. Cut-off read from the data, not from the text of the source: active = GI50 up to about 1.1 µM and inactive = higher.

// worked examples, GI50 included
{"compound": "OC(c1ccco1)C(F)(F)c1nc2ccccc2o1 (stereo not drawn)", "GI50": "56.8 µM (inactive)"}
{"compound": "CC1(C)OC(=O)C(Cc2ccccc2)(Cc2ccccc2)C(=O)O1", "GI50": "> 100 µM (inactive)"}
{"compound": "O=C1CCCCC1C(O)(C(F)(F)F)C(F)(F)Cl (stereo not drawn)", "GI50": "> 10 µM (inactive)"}

Provide each entry's GI50 from the list below.
1. Oc1cc(O)c(Oc2cccc(O)c2O)c(O)c1
2. O=C1O[B-](c2ccccc2)(c2ccccc2)[NH+]2CCCC12 (stereo not drawn)
3. N#CCCN(c1ccc(/C=N/c2nc(-c3ccccc3)cs2)cc1)S(=O)(=O)c1ccccc1

Out:
["> 100 µM (inactive)", "> 100 µM (inactive)", "46.2 µM (inactive)"]

Consider the following items and state reported GI50 for each.
1. OCc1ccc(-c2ccc(-c3ccc(CO)s3)o2)s1
2. Cc1ccsc1/C(S)=N\c1ccc(Cl)c(/C=N/OC(C)(C)C)c1
3. CCn1cc(/C=C/C(C)c2cn(CC)c(=O)[nH]c2=O)c(=O)[nH]c1=O (stereo not drawn)
4. C/C=C1\CN2CCc3c([nH]c4ccccc34)C2CC1CCO (stereo not drawn)

Out:
1. 7.4 µM (inactive)
2. 28.1 µM (inactive)
3. > 100 µM (inactive)
4. > 100 µM (inactive)

Each compound below has a reported value. Please supply its GI50.
1. O=C/C(=C(/Cl)c1ccc(O)cc1)c1ccccc1
2. CC(=O)/C(=C\c1ccccc1)C(=O)Nc1ccccc1
3. O=C(O)C1OC1C(=O)O (stereo not drawn)

Out:
1. 33.3 µM (inactive)
2. 44.1 µM (inactive)
3. > 100 µM (inactive)

---

test system: UACC-257; experiment: NCI tumour cell line growth inhibition, 48 h
Calls of active or inactive are those of the source. No stated cut-off is given here; in the data, active = GI50 up to about 1.1 µM and inactive = higher. Bridge positions count the residues as written; N and C are the ends. Square brackets hold non-standard residues; d marks the D form. Peptide text beside a SMILES is read from it. * marks the point of attachment. Cya = N[CH](CS(=O)(=O)O)C(=O)O; X49 = CC(C)CCCCCCCC(O)CC(=O)*; GABA = NCCCC(=O)O
observation.type: GI50

Here's what some known entries look like.
{"molecule": "O=C1c2ccccc2C(=O)c2c(NCCNC(=O)C3CCCN3)ccc(NCCNC(=O)C3CCCN3)c21 (centres undefined)", "observation.type": "GI50", "recorded.value": "> 100 µM (inactive)"}
{"molecule": "CN(C)c1ccc(-c2cc(O)c3ccccc3n2)cc1", "observation.type": "GI50", "recorded.value": "> 100 µM (inactive)"}
{"molecule": "Cc1cccc2cc3c(ccc4ccccc43)c[n+]12", "observation.type": "GI50", "recorded.value": "14 µM (inactive)"}

I have 2 molecules here; please give me GI50 for each one.
1. N#CC(C#N)=Cc1ccc(CP(=O)(O)O)cc1
2. N=C(N)NS(=O)(=O)c1ccc(NC(=O)c2cccc3c(N)c4ccccc4nc23)cc1

Out:
1: > 100 µM (inactive); 2: > 100 µM (inactive)

// each listed molecule needs a value for GI50
1. O=C1CSC(C(/N=N/c2ccccc2)=C2Nc3ccccc3N2)=N1
2. CCN1/C(=C/C#C/C(C)=C\c2sc3ccccc3[n+]2CC)Sc2ccccc21
3. COc1ccc(C(O)(c2ccccc2)c2nccc3ccccc23)cc1 (centres undefined)
4. O=C1Oc2ccccc2C(=O)/C1=C/NC(=S)NCc1ccccc1
5. COc1ccccc1N1C(=O)C2c3[nH]c4ccccc4c3C3CCC(C(C)(C)C)CC3C2C1=O (centres undefined)
6. CC(C)CCCCCCCC(O)CC(=O)NC(CS(=O)(=O)O)C(=O)NC(CC(C)C)C(=O)NCCCC(=O)NC(Cc1c[nH]cn1)C(=O)NC(C)C(=O)NC1C(=O)NC(C(C)O)C(=O)NC(Cc2c[nH]cn2)C(=O)NC(C)C(=O)NC(C(C)O)C(=O)OC1C (centres undefined) (X49-[Cya]L[GABA]HATTHAT; ester 6-C; configuration not given here)
7. O=CN/C=C\c1cc(O)ccc1O
8. COc1cccc(/N=N/C(=N/NC(=O)c2ccc(C)cc2)c2ccc(N(CCC#N)CCC#N)cc2OC)c1

Out:
24.4 µM (inactive)
1.32 µM (inactive)
7.74 µM (inactive)
90.6 µM (inactive)
> 100 µM (inactive)
> 25 µM (inactive)
11.7 µM (inactive)
7.14 µM (inactive)

For every item below, please supply its GI50.
1. [BH3-][P+]1(CC[P@@+]([BH3-])(c2ccccc2)c2ccccc2OC)[C@@H](C)[C@@H](O)[C@H](O)[C@@H]1C (some centres undefined)
2. O=C(CCc1nnc2s/c(=C\c3ccccc3)c(=O)n12)Nc1cc(Cl)ccc1Cl
3. c1ccc(/N=C2\c3ccccc3C3=NCCCN32)cc1
4. COc1cc(C=C2N=C(c3ccccc3)N(n3c(-c4ccccc4)nc4ccccc4c3=O)C2=O)cc(OC)c1OC

Out:
4.19 µM (inactive)
> 100 µM (inactive)
40.4 µM (inactive)
20.1 µM (inactive)

State the recorded GI50 for every item in the following list.
1. Cc1cc(S(=O)(=O)Nc2nc(N)n(-c3ccccc3)n2)c(S)cc1Cl
2. CC(C)(C)c1cc(C(C)(C)C)c2sc(=O)oc2c1O

Out:
1. > 100 µM (inactive)
2. 5.71 µM (inactive)

---

system: A549; assay: NCI tumour cell line growth inhibition, 48 h
Calls of active or inactive are those of the source. Rule as the data show it: active = GI50 up to about 1.1 µM and inactive = higher.
Result category, one only: active, inactive

Study these solved cases before continuing.
{"compound": "COC(=O)C(Cc1c[nH]c2ccccc12)NP(=O)(O)OCC1OC(n2cc(I)c(=O)[nH]c2=O)CC1O (stereo not drawn)", "label.value": "inactive"}
{"compound": "CCOc1ccccc1Nc1ccc(N)cc1S(=O)(=O)O", "label.value": "inactive"}
{"compound": "COc1ccccc1-c1nc[nH]c1-c1ccccc1OC", "label.value": "inactive"}
{"compound": "O=C1C2=C(C3=NCCc4c[nH]c1c43)C1(C=C(Br)C(O)C(Br)=C1)CCN2 (stereo not drawn)", "label.value": "inactive"}
{"compound": "Oc1cc(O)c(Oc2cccc(O)c2O)c(O)c1", "label.value": "inactive"}

In: Recorded call for N#CCCN(c1ccc(/C=N/c2nc(-c3ccccc3)cs2)cc1)S(=O)(=O)c1ccccc1 ?
Out: inactive

In: So what was the verdict on O=C1O[B-](c2ccccc2)(c2ccccc2)[NH+]2CCCC12 (stereo not drawn) in this test?
Out: inactive

In: Each compound tested received a call. Report the one for COc1ccc2c(c1)CCCc1cn[nH]c1-2 .
Out: inactive

In: So what was the verdict on N#Cc1c(O)cc(=O)n2c1[nH]c1ccccc12 in this test?
Out: inactive

In: Assay outcome for CSc1nc(=S)[nH]c2[nH]nc(C)c12 : what was it?
Out: inactive

In: Tell me the assay call for CNC(=S)N/N=C1\CC(c2ccccc2)Oc2ccccc21 (stereo not drawn) please.
Out: inactive

In: Look up the recorded call for COC(=N)/C(=C1\OC(=N)C(c2ccc(Cl)cc2)=C1O)c1ccc(Cl)cc1 in this test.
Out: inactive

In: Please indicate how the test categorized CN(Cc1cnc2nc(N)nc(N)c2n1)c1ccc(C(=O)NC(CCC(=O)NCC(P(=O)(O)O)P(=O)(O)O)C(=O)O)cc1 (stereo not drawn) .
Out: inactive

In: Can you look up the reported call for CS(=O)(=O)NNS(=O)(=O)c1ccc(F)cc1 for me?
Out: inactive

In: Each compound tested received a call. Report the one for C=C(C)C1CC=C(C)CC1 (stereo not drawn) .
Out: inactive

In: For COc1cc2c[n+](C)c3c4cc5c(cc4ccc3c2cc1OC)OCO5 [NITIDINE CHLORIDE] , what call appears in the results of this test?
Out: active

In: Assay outcome for O=C(/N=N/c1ccc(Cl)cc1Cl)NNc1ccc(Cl)cc1Cl : what was it?
Out: inactive

In: Which outcome did this test record for the compound c1ccc(C(C2=Nc3cccc4cccc(c34)N2)c2ccccc2)cc1 ?
Out: inactive

In: How was Cc1c(C(=O)O)n2c(C)nnc2c2ccccc12 classified in this test?
Out: inactive

In: // param item: CN(C)CCN(C)C(=O)C1CCCN1C(=O)OCc1ccccc1 (stereo not drawn) ; yields the recorded call
Out: inactive
